- measurement description: AUC(0 to t) in Sprague-Dawley rat at 5 mg/kg, iv measured upto 24 hrs by LC-MS/MS analysis
- Format: ADME, organism-based
- Design: time < 24 hrs, dose 5 mg/kg, route iv
- particulars: in vivo
reported metric: AUC(0-t) at 24 h (ng·h/mL)

INSERT INTO measurements (compound, recorded_result) VALUES
  ('C[C@H]1CC[C@@H](c2nc3cccc(Cl)c3c(=O)n2-c2cccnc2)N1c1nc(N)nc(N)c1C#N', 6810);

---

Entries annotated with measured inhibition
- measured on: Phosphatidylinositol 4,5-bisphosphate 3-kinase catalytic subunit alpha isoform (Homo sapiens, UniProt P42336)
- Sequence (P42336 whole entry, canonical isoform): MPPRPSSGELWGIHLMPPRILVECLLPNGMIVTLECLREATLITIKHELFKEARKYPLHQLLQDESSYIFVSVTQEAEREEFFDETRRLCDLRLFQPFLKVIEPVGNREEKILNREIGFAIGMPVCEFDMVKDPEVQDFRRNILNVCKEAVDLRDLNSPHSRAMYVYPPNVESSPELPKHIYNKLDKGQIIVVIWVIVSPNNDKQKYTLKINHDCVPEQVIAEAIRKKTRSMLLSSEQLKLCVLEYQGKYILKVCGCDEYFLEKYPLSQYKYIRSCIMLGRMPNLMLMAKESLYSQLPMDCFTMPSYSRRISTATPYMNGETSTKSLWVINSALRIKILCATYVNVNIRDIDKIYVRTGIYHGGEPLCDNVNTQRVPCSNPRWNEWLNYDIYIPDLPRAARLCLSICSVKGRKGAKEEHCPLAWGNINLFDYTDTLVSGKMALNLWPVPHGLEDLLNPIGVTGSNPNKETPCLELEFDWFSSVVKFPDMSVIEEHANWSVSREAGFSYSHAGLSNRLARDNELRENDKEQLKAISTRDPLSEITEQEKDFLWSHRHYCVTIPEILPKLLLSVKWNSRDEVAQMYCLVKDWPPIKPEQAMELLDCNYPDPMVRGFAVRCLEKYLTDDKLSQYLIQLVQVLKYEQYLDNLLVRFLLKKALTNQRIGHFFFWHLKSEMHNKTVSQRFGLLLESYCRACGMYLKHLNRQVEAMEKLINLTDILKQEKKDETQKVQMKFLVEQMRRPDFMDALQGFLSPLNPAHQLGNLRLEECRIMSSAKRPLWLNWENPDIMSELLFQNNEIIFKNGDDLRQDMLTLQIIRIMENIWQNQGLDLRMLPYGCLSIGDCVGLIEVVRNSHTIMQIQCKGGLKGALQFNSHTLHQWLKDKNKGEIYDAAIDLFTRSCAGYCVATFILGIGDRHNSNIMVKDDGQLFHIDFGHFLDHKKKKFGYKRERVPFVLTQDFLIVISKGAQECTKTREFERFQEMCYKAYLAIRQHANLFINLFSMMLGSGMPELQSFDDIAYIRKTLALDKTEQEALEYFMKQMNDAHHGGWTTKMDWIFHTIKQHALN
- measurement description: Inhibition of N-terminal His6-tagged recombinant full length human PI3Kalpha expressed in baculovirus infected Sf21 insect cells at 1 uM by HTRF assay relative to control
reported metric: inhibition (%)

INSERT INTO measurements (compound, unit_spec, recorded_result) VALUES
  ('Cc1ccc(C#Cc2cccc3nc([C@@H]4CC[C@H](C)N4c4nc(N)nc(N)c4C#N)n(-c4ccccc4)c(=O)c23)cc1', '%', 35),
  ('Cc1cc(N2[C@@H](C)CC[C@H]2c2nc3cccc(Cl)c3c(=O)n2-c2ccccc2)nc(N)n1', '%', 96),
  ('C[C@H]1CC[C@@H](c2nc3cccc(-c4cncnc4)c3c(=O)n2-c2ccccc2)N1c1nc(N)nc(N)c1C#N', '%', 26),
  ('C[C@H]1CC[C@@H](c2nc3cccc(-c4cnn(C5CC5)c4)c3c(=O)n2-c2cccc(F)c2)N1c1nc(N)nc(N)c1C#N', '%', 25),
  ('N#Cc1c(N)nc(N)nc1N1[C@H](c2nc3cccc(Cl)c3c(=O)n2-c2cc(F)cc(F)c2)C[C@@H]2CCCC[C@@H]21', '%', 79),
  ('C[C@H]1CC[C@@H](c2nc3cccc(-c4cnn(C5CC5)c4)c3c(=O)n2-c2ccccc2)N1c1nc(N)nc(N)c1C#N', '%', 23),
  ('C[C@H]1CC[C@@H](c2nc3cccc(Cl)c3c(=O)n2-c2ccccc2)N1c1nc(N)nc2[nH]ccc12', '%', 82),
  ('CCn1cc(-c2cccc3nc([C@@H]4CC[C@H](C)N4c4nc(N)nc(N)c4C#N)n(-c4ccccc4)c(=O)c23)cn1', '%', 1),
  ('C[C@H]1CC[C@@H](c2nc3cccc(-c4cnn(C5CC5)c4)c3c(=O)n2-c2cccnc2)N1c1nc(N)nc(N)c1C#N', '%', 31),
  ('C[C@H]1CC[C@@H](c2nc3cccc(C#Cc4ccccc4)c3c(=O)n2-c2ccccc2)N1c1nc(N)nc(N)c1C#N', '%', 22),
  ('C[C@H]1CC[C@@H](c2nc3cccc(Cl)c3c(=O)n2-c2ccccc2)N1c1ccnc(N)n1', '%', 78),
  ('C[C@H]1CC[C@@H](c2nc3cccc(Cl)c3c(=O)n2-c2cccc(F)c2)N1c1nc(N)nc2[nH]cnc12', '%', 58),
  ('COc1ccc(-c2cccc3nc([C@@H]4CC[C@H](C)N4c4nc(N)nc(N)c4C#N)n(-c4ccccc4)c(=O)c23)cc1', '%', 5),
  ('C[C@H]1CC[C@@H](c2nc3cccc(Cl)c3c(=O)n2-c2cccnc2)N1c1nc(N)nc2[nH]cnc12', '%', 89),
  ('C[C@H]1CC[C@@H](c2nc3ccc(Cl)cc3c(=O)n2-c2cccnc2)N1c1nc(N)nc(N)c1C#N', '%', 56);
